Give apparent Kd for every item shown.
- Tested on: MS2 coat protein
- assay_explanation: apparent Kd, MS2 coat protein; higher = weaker binding; RNA-MaP array; FMN 200 µM where present
- condition_details: designed as: OFF switch for flavin mononucleotide; no ligand
Give bare numbers, in nM.

A selection of reference data follows.
## Input May I ask what apparent Kd has been recorded for UCAUAAAAGAUCCUAUUUAUCUACAUGAGGAUCACCCAUGUGCAGGAUAUGCUAUAUUUAAUAAAGCAGAAGGGCAAUAACCGC ?
## Output 127

## Input May I ask what apparent Kd has been recorded for CCGGAAAUAGAGGAUAUAGGAGUCGAUAGACUCCUAGAAGGCUAUACAUGAGGAUCACCCAUGUGUCCUACCGG ?
## Output 17.4

## Input May I ask what apparent Kd has been recorded for GGUGCGAGUGUGAGGAUAUGCUGGUCGUAAGAUCAGCAGAAGGCACAUGAGGAUCACCCAUGUGAAAACGUACC ?
## Output 22.3

## Input May I ask what apparent Kd has been recorded for GGUUGACAAAGUCAACCAUAACGAACAUGAGGAUCACCCAUGUAGGAUAUGCUACUCAAAGAGUAGCAGAAGGACAUGUGCCUU ?
## Output 35.7

## Input May I ask what apparent Kd has been recorded for AACAGUGCUAAUAAAUAAGAUCUACAUGAGGAUCACCCAUGUAAGGAUAUCGUCAGGAAUACUGACGAGAAGGUACAUGCACUG ?
## Output 15

Batch of 2 sequences: report apparent Kd for each.
1. UGGAGGUCAGGAUAUGCAUGGCGGGACUUGCGUCGUGGCGUGCAGAAGGGACAUGAGGAUCACCCAUGUGGAGA
2. AAUAUAGAGCUGGAAUAAAACCUCACAUGAGGAUCACCCAUGUAGGAUAUCAGCACGAUAAGUGCUGAGAAGGACAUCCAGCUC

## Output
[88.6, 15.6]

###

- Tested on: MS2 coat protein
- assay_explanation: apparent Kd, MS2 coat protein; higher = weaker binding; RNA-MaP array
- condition_details: designed as: OFF switch for flavin mononucleotide; no ligand
reported_endpoint: apparent Kd (nM)
One number for each entry, in nM.

## Input Return apparent Kd measured with MS2 coat protein given this sequence: GCUGGACAUGAGGAUCACCCAUGUGAGGAUAUGAGAAGUAUCAUGCACCCGAUCCAUCUCAGAAGGCACAGGUG
## Output 71.5

## Input Return apparent Kd measured with MS2 coat protein given this sequence: CUGUAGACAGGAUAUGUUGUGCCGUACAUGAGGAUCACCCAUGUGAGAUCUCGCUACCAUACAGAAGGGUCUAAAC
## Output 43.2

## Input Return apparent Kd measured with MS2 coat protein given this sequence: CACACCGAAGGAUAUACUACUGCUAUUUAGAGUGAGGGCGAACAUGAGGAUCACCCAUGUAGAAGGUCGAGAAA
## Output 17.5

Batch of 2 sequences: report apparent Kd for each.
1. ACGGUAGGCUAGAAGGCCCGGACUCGCCCAGAGGGAGGAUAUAGCAUUGGCGUACUACAUGGCACAUGAGGAUCACCCAUGUAA
2. GGUGGGUCAGGAUAUCCCACACAAUUGCGAACGCGAUGCAGGGAGAAGGGACAUGAGGAUCACCCAUGUGGGAC

## Output
35.4
54.4

Batch of 6 sequences: report apparent Kd for each.
1. UUUAUACAUGAGGAUCACCCAUGUGAGGAUAUAAAGGCGGACACUGCUGUCGAUCGCUUUAGAAGGCACUGGAU
2. AGGCCACAUGAGGAUCACCCAUGUAAGGAUAUUGGAGCAUGGAAACGCUGUGCGCAUGCAAGAAGGUACACGGA
3. ACCCACAGAGGAUAUACAGCGAAACCUCAUAUUAAAUAUUCACAUGAGGAUCACCCAUGUAGAAGGCUGGAGAA
4. CCACAGACAUGAGGAUCACCCAUGUAGUUGGGCGUGUCAUCUCAGGAUAUGGCAACGCUUAUGAGCCAGAAGGGAGAAGGUUAU
5. AACAAAAGGAAGAAGGCAGUUAAACAUGAGGAUCACCCAUGUGGGACGCGGGAAAUCAACGAGACUGAGGAUAUUCAUUAAGAA
6. AUGUUAAGACAGGAUAUCCAAGCUCUAGCGUCAGGAGAAGGGUCAACAUGAGGAUCACCCAUGUGUAGUCUUCG

## Output
1. 15.8
2. 24.7
3. 10.9
4. 13.4
5. 9.84
6. 7.48

Batch of 7 sequences: report apparent Kd for each.
1. AGCGUGUAAGGAUAUCCAAUUGAUGGGAGCGGAUCUUCCCAGGAGAAGGUACAUGAGGAUCACCCAUGUGGCGC
2. AGACCGGCUCAGGAUAUGUACAGGACAUACUCAACAGAAGGGAGUACAUGAGGAUCACCCAUGUCUGGGUAGAU
3. AAAAGAGAAGGAUAUACAGGAAAAGAAAAGAUAUUUCAAUAACAUGAGGAUCACCCAUGUAGAAGGACUAAUAG
4. ACUCCGUCGUAGAAGGGAAAAUGCUUGGCGUCUCUCGGGUACAUGAGGAUCACCCAUGUUACGGUUCAGGAUAUACAGACUGCU
5. GCGGACGAUGAGAAGGUAGUAAGGUAGGACAUGAGGAUCACCCAUGUAUGAACUAUCCCAACAACUAAGGAUAUCAGCAACCCU
6. ACAUGAGGAUCACCCAUGUUUGGGCAAAGAUUGAUUGACACGAGAAGGGCCCGCGUACGUCGUAGGCAGGAUAUCGAGUACCGG
7. GAUUUACAUGAGGAUCACCCAUGUGAGGAUAUGCCGUACAUCGCGCUCUGAGCUAGUUGCAGAAGGCACAUGAU

## Output
1: 37.2; 2: 488; 3: 11.8; 4: 10.5; 5: 7.34; 6: 32.2; 7: 18.9

Batch of 6 sequences: report apparent Kd for each.
1. CUCCUCGUAGGAUAUCGCACCGCGUACAUGAGGAUCACCCAUGUGAUUCUAUAGAUUAAGCGAGAAGGACGACAGG
2. CAAAGUUUUAAGAAGGGAUCGAUUAGAUUCACAUGAGGAUCACCCAUGUAGCCGGGACGGAGAGAUCAGGAUAUUAAAGAUGUC
3. GCGGGAGAUCAGAAGGCUAUAACGUUUCACAUGAGGAUCACCCAUGUGGGCUCCUAGGGAUGGAUAGAGGAUAUGACCGAAUAU
4. AAACAGGAAGGAUAUACAUGAGGAUCACCCAUGUCAAAUAAAACAAAUAAGCAAGAAUGUAGAAGGACCAAAAU
5. GACAGCGAAGGAUAUACAUGAGGAUCACCCAUGUCUCACUAACGUAGCCGCGGGUAAUGUAGAAGGUCGCGAUG
6. UCAUUGUGAGGAUAUUGAUAGCGGACCUUGAUUCUGUACAACAAGAAGGCACAUGAGGAUCACCCAUGUCAUCA

## Output
[376, 55.8, 12.9, 17.2, 191, 16.4]

Data origin: the EternaBench riboswitch data
